System: MDA-MB-453
run_description: Antiproliferative activity against human MDA-MB-453 cells assessed as reduction in cell viability after 72 hrs by MTT assay
Type: functional, cell-based
run_conditions: MDA-MB-453, 72 h
pIC50: −log10 of the molar value.
quantity_kind: pIC50

# compound_structure, quantity_kind, reading
data = [
    ("CC(=O)c1c(C)c2cnc(Nc3ccc(N4CCN(CC(=O)NCCOCCOCCNCC#N)CC4)cn3)nc2n(C2CCCC2)c1=O", "pIC50", "< 4.70"),
    ("CC(=O)c1c(C)c2cnc(Nc3ccc(N4CCN(CCC(=O)NCCNC(=O)CCl)CC4)cn3)nc2n(C2CCCC2)c1=O", "pIC50", "< 4.70"),
    ("C=CC(=O)NCCCCNC(=O)CN1CCN(c2ccc(Nc3ncc4c(C)c(C(C)=O)c(=O)n(C5CCCC5)c4n3)nc2)CC1", "pIC50", "< 4.70"),
]

Lab note: next compound to report on.
INPUT: Give the measured pIC50 of CC(=O)c1c(C)c2cnc(Nc3ccc(N4CCN(C(C)=O)CC4)cn3)nc2n(C2CCCC2)c1=O .
OUTPUT: < 4.30
